Measured On: T1, cynomolgus monkey CD19 on peripheral blood B cells (cynomolgus monkey (Macaca fascicularis), UniProt A0A2K5W8L9 20-557)
T1 construct: whole, on cells; also called cynomolgus monkey B cells
T1 sequence: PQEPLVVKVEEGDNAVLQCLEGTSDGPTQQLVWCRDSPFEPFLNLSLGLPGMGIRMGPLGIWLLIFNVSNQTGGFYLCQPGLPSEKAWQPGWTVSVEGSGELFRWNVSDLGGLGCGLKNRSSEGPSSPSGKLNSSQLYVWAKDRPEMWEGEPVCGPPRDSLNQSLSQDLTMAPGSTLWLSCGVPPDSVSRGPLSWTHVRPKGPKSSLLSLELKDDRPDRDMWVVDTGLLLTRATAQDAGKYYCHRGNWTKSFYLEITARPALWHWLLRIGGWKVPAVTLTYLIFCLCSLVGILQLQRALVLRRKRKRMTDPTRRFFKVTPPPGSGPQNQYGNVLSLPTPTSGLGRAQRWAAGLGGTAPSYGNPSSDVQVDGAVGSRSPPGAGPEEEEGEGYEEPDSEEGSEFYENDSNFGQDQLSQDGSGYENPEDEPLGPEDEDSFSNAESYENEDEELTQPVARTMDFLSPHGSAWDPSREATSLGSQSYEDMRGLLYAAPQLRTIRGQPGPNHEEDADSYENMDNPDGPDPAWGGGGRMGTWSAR
Protocol: FACS, cynomolgus PBMC, CD20+ B cells
Procedure: The monkey peripheral blood mononuclear cells were extracted from fresh cynomolgus monkey peripheral blood (purchased from Shanghai Medicilon Inc.) according to the instructions of Ficoll-Paque Plus (purchased from GE Healthcae, catalog number: 171440-02). After the cell suspension was centrifuged, the cells were resuspended in PBS containing 1% BSA, and then the cells were counted. […] The mixture was incubated for 1 h at room temperature. […]
Observation Type: Proportion of chimeric antibody positive cells to B cells (%) at 10 nM
One number for each entry, in %.

INSERT INTO assay_data (binder, output_unit, endpoint_result) VALUES
  ('F4.58.6 (antibody, human IgG1, V domains shown, human-murine chimeric antibody, human IgG1) VH: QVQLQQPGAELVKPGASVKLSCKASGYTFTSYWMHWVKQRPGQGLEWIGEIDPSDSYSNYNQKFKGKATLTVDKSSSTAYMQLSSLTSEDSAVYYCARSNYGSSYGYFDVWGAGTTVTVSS VL: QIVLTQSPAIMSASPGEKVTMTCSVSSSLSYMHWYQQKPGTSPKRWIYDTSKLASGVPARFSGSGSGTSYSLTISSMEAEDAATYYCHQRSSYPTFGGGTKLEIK', '%', 2);

Consider now this further binder.
Report measured Proportion of chimeric antibody positive cells to B cells (%) at 10 nM; entry is F3.40.14 (antibody, human IgG1, V domains shown, human-murine chimeric antibody, human IgG1) VH: QAQLQQSGPELVKPGASVKISCKASGYAFSGSWMNWVQQRPGKGLEWIGRIYPGDGDTYYSGKFKDKAILTADTSSSTAYMQLSSLTSEDSAVYFCAQLRSRYVMDYWGQGASVTVSS VL: DIVLTQSPASLAVSLGQRATISCRASESVSIHGTHLMHWYQQKPGQPPRLLIYAASNLESGVPARFSGSGSETDFTLNIHPVEEEDAATYFCQQGIDDPYTFGGGTKLEIK
1
